So I've got a bunch of compounds here, and I need their IC50 values.
testedOn: DDR1 kinase in DDR1-expressing U2OS cells (Homo sapiens, UniProt Q08345)
Sequence (Q08345 19-913): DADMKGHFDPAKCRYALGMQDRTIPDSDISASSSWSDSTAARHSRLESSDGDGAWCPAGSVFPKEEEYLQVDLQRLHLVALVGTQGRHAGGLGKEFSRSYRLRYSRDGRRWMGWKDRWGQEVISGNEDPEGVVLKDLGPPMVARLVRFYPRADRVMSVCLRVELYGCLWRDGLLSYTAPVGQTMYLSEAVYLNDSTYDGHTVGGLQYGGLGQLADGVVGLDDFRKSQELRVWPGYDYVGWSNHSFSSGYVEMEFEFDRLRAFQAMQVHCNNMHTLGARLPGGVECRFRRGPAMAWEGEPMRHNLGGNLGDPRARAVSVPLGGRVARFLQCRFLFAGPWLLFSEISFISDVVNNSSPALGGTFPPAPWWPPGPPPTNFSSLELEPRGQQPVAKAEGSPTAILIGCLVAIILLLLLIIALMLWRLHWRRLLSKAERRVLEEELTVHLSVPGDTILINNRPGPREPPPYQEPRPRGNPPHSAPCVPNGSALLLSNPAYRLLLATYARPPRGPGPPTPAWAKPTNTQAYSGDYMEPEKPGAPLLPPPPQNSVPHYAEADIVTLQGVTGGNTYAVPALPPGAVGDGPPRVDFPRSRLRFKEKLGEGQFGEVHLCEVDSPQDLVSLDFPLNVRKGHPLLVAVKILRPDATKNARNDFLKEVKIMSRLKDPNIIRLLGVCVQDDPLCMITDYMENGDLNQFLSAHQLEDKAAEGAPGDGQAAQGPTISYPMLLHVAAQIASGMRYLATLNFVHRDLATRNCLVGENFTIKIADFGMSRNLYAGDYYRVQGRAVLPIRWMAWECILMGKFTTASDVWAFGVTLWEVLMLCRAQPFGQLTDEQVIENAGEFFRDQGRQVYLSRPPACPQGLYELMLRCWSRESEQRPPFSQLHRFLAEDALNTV
methodNotes: DDR1 kinase inhibitory effect in DDR1-expressing U2OS cells (PathHunter, type I collagen stimulation)
experimentalParameters: type I collagen 50 μg/mL, 10% FBS, read-out: DDR-1 IC50
Procedure: Test compounds in DMSO were prepared at 10 mM and diluted with DMSO to final concentrations of 1000, 100, 10, 1, and 0.1 μM. These solutions were diluted further with E-MEM medium (Fujifilm Wako Pure Chemical Industries, 051-07615) containing 10% fetal bovine serum (FBS, Gibco, 10270106) to 60,000, 6,000, 600, 60, 6, and 0.6 nM to obtain test sample solutions. […]
One number for each entry, in nM.

[
  {
    "moleculeSmiles": "NC(=O)c1ncc2cc(-c3cc(C(=O)N[C@H](CO)CCOC(F)(F)F)cnc3C(F)(F)F)ccn12",
    "units": "nM",
    "IC50": 78
  },
  {
    "moleculeSmiles": "Nc1ncc(/C(F)=C/c2cc(C(=O)N[C@H](CO)c3cccc(F)c3)ccc2OC(F)F)cn1",
    "units": "nM",
    "IC50": 44
  },
  {
    "moleculeSmiles": "O=C(N[C@H]1CC2(CC2)C[C@@H]1O)c1ccc(OC(F)F)c(C#Cc2cncc(F)c2)c1",
    "units": "nM",
    "IC50": 27
  }
]

Switching to the query record.
Recorded result, NC(=O)c1ncc2cc(-c3cc(C(=O)N[C@H]4CC5(CC5)C[C@@H]4O)ccc3C(F)(F)F)ccn12 , IC50: 7.8
